Molecular target: T1, IL-18 receptors on HEK-Blue IL-18 reporter cells (InvivoGen) (UniProt Q13478 19-541; O95256 20-599)
T1 sequence (looked up) 1: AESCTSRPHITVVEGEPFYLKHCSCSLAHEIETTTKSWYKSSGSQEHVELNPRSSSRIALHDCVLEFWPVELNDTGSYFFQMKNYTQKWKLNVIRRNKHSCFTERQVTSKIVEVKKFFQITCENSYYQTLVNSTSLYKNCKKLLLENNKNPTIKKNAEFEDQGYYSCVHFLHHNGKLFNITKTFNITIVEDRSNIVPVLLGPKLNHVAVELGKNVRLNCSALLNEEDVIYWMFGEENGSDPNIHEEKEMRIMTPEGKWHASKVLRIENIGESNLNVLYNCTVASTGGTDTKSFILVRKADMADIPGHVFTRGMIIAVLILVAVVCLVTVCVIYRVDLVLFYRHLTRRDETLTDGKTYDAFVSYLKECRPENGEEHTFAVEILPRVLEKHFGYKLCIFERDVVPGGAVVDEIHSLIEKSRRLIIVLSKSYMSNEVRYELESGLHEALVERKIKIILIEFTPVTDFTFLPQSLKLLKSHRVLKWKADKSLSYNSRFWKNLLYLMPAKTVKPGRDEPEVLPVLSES
T1 sequence (looked up) 2: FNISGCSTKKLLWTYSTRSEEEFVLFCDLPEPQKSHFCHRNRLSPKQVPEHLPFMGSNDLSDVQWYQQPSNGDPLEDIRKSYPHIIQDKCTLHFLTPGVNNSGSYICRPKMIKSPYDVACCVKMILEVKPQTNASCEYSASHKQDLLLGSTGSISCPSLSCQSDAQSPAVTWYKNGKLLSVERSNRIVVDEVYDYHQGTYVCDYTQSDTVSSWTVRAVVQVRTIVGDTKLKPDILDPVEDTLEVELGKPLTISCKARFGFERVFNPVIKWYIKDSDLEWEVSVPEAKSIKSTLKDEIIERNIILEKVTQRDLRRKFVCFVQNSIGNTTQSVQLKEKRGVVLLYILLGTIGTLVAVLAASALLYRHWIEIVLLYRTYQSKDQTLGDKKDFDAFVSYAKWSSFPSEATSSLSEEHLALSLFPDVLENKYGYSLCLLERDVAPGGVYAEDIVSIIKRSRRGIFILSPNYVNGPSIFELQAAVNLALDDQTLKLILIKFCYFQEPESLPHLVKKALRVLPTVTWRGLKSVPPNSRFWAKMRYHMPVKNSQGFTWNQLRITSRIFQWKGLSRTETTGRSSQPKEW
Assay: cell-based or functional assay
Catalogue of binders with associated HEK-Blue EC50 pM, NO BP (300 nM BP run)

{"columns": ["Binder", "Measure Unit", "HEK-Blue EC50 pM, NO BP (300 nM BP run)"],
 "data": [
  ["IL-18 variant M60K (ligand) YFGKLESKLSVIRNLNDQVLFIDQGNRPLFEDMTDSDMRDNAPRTIFIISMYKDSQPRGKAVTISVKSEKISTLSSENKIISFKEMNPPDNIKDTKSDIIFFQRSVPGHDNKMQFESSSYEGYFLASEKERDLFKLILKKEDELGDRSIMFTVQNED", "pM", 3.96],
  ["IL-18 variant G3T, E6K, K53A (ligand, also called G3T, K53A, E6K) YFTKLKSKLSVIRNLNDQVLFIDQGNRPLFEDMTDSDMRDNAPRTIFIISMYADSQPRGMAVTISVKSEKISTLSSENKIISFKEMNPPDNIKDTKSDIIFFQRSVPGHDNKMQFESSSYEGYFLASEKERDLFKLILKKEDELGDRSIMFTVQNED", "pM", 0.04],
  ["IL-18 variant G3T, M60K, D157E (ligand) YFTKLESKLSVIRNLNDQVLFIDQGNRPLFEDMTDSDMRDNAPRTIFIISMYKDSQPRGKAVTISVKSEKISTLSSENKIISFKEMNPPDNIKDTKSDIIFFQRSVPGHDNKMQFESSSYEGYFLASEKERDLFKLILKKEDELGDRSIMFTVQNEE", "pM", 0.75],
  ["IL-18 variant G3T, M60K (ligand) YFTKLESKLSVIRNLNDQVLFIDQGNRPLFEDMTDSDMRDNAPRTIFIISMYKDSQPRGKAVTISVKSEKISTLSSENKIISFKEMNPPDNIKDTKSDIIFFQRSVPGHDNKMQFESSSYEGYFLASEKERDLFKLILKKEDELGDRSIMFTVQNED", "pM", 0.76]
]}
